Values compiled from ChEMBL document CHEMBL1142720.

A set of compounds tested on Dipeptidyl peptidase 4 (Homo sapiens, UniProt P27487), with measured IC50:

{"compound": "O=C(CNCc1ccc2c(c1)OCO2)N1CCCC1", "IC50": "> 1000 µM"}
{"compound": "FC(CNCCc1ccccc1)=C1CCCCC1", "IC50": "> 1000 µM"}
{"compound": "FC(CNc1ccccc1)=C1CCCCC1", "IC50": "> 250 µM"}
{"compound": "N#CC1CCC/C1=C(/F)CNCCc1ccccc1 (stereo unspecified)", "IC50": "> 500 µM"}
{"compound": "FC(CNCCc1ccccn1)=C1CCCC1", "IC50": "> 1000 µM"}
{"compound": "CN(C)CCCNCC(F)=C1CCCC1", "IC50": "> 1000 µM"}
{"compound": "O=C(CNCc1ccc2c(c1)OCO2)N1CCCCC1", "IC50": "> 1000 µM"}
{"compound": "C(CNCc1ccc2c(c1)OCO2)=C1CCCC1", "IC50": "> 250 µM"}
{"compound": "FC(CNCCc1ccccc1)=C1CCCC1", "IC50": "> 1000 µM"}
{"compound": "C(CNC1CCCCC1)=C1CCCC1", "IC50": "> 1000 µM"}
{"compound": "N#CC1CCC/C1=C(\\F)CNCCc1ccccc1 (stereo unspecified)", "IC50": "> 1000 µM"}
{"compound": "N#CC1CCC/C1=C(/F)CNCc1ccc(F)cc1 (stereo unspecified)", "IC50": "> 1000 µM"}
{"compound": "FC(CNCc1ccc(F)cc1)=C1CCCCC1", "IC50": "> 250 µM"}
{"compound": "COc1ccc(CNCC(F)=C2CCCCC2)cc1", "IC50": "> 250 µM"}
{"compound": "FC(CNC1CCNCC1)=C1CCCCC1", "IC50": "> 1000 µM"}
{"compound": "FC(CNCc1ccccc1)=C1CCCCC1", "IC50": "> 1000 µM"}
